# Target Or System: HLA-A*02:01 (Homo sapiens, UniProt P04439, D140Y/D185E/D98H/E176V/E277Q/G131W/G231S/I119V/I121R/I166T/I218V/L300P/L318F/N151K/N90K/P208A/P217A/Q86G/Q94H/R138H/R169H/T345S)
# Assay Notes: MHC binding assay (UV-ligand exchange, beta2m ELISA)
# Assay Setup: binding to HLA-A*02:01, β2m ELISA
Quantity Measured: Peptide exchange (MHC class I binding score, peptide exchange yield)

137 (KLIYKDLVSV; listed as Homo sapiens) [compound 137]
++ (≧20% = ++)
216 (ALSTVTPRI; listed as Homo sapiens) [compound 216]
++ (≧20% = ++)
31 (GLLETTGLLAT; listed as Homo sapiens) [compound 31]
+++ (≧50 = +++)
215 (QIADIVTSV; listed as Homo sapiens) [compound 215]
++ (≧20% = ++)
261 (GLAALAVHL; listed as Homo sapiens) [compound 261]
+++ (≧50 = +++)
19 (KVFELDLVTL; listed as Homo sapiens) [compound 19]
++ (≧20% = ++)
69 (LKVLKADVVL; listed as Homo sapiens) [compound 69]
++ (≧20% = ++)
83 (GLLENSPHL; listed as Homo sapiens) [compound 83]
++ (≧20% = ++)
165 (SLLDYEVSI; listed as Homo sapiens) [compound 165]
+++ (≧50 = +++)
25 (LLWGHPRVALA; listed as Homo sapiens) [compound 25]
+++ (≧50 = +++)
221 (IMLNSVEEI; listed as Homo sapiens) [compound 221]
++ (≧20% = ++)
272 (FVMEGEPPKL; listed as Homo sapiens) [compound 272]
++ (≧20% = ++)
154 (AIIKEIQTV; listed as Homo sapiens) [compound 154]
++ (≧20% = ++)
146 (VVAAHLAGA; listed as Homo sapiens) [compound 146]
++ (≧20% = ++)
139 (IILENIQSL; listed as Homo sapiens) [compound 139]
+++ (≧50 = +++)
159 (QLGPVPVTI; listed as Homo sapiens) [compound 159]
+++ (≧50 = +++)
233 (SLFESLEYL; listed as Homo sapiens) [compound 233]
+++ (≧50 = +++)
144 (FLISQTPLL; listed as Homo sapiens) [compound 144]
+++ (≧50 = +++)
150 (VLLDMVHSL; listed as Homo sapiens) [compound 150]
+++ (≧50 = +++)
